Exercise: for every item that follows, state its recorded solubility.
Experiment: Solubility of the compound at pH 2
Type: physicochemical
Conditions: buffer

Query: Consider the compound C[C@H](COc1ccc(-c2ccc(=O)n(C)n2)cc1)CN1CCC[C@H]1C and give its measured solubility.
Response: > 250 µg/mL

Query: Param item: C[C@@H]1CCCN1CCCOc1ccc(-c2ccc(=O)n(C)n2)cc1F
Response: > 250 µg/mL

---

Assay: Clearance in rat at 1 mg/kg, iv after 6 hrs
Format: ADME, organism-based
Parameters: dose 1 mg/kg, route intravenous
Settings: in vivo
QUANTITY NAME: clearance (mL/min/kg)
Numbers only; they are read as mL/min/kg.

Query: Find the recorded clearance belonging to C[C@@H]1CCCN1CCCOc1ccc(-c2ccc(=O)n(C)n2)cc1F and report it.
Response: 38

Query: Consider next the molecule C[C@H](COc1ccc(-c2ccc(=O)n(C)n2)cc1)CN1CCC[C@H]1C in the same way.
Response: 37

---

Assay: Half life in dog liver microsomes
Type: ADME, Canis lupus familiaris, Microsome
Give measured half-life for each item. Keep answers brief.

Query: // query half-life value for entry C[C@@H]1CCCN1CCCOc1ccc(-c2ccc(=O)n(-c3ncccn3)n2)cc1
Response: > 40 min

Query: And what about the compound C[C@@H]1CCCN1CCCOc1ccc(-c2ccc(=O)n(C)n2)cc1F ?
Response: > 40 min

Query: Also need C[C@H](COc1ccc(-c2ccc(=O)n(C)n2)cc1)CN1CCC[C@H]1C , thanks.
Response: > 40 min

---

Assay: Half life in rat at 1 mg/kg, iv after 6 hrs
Type: ADME, organism-based
Design: dose 1 mg/kg, route intravenous
Settings: in vivo
Would you mind telling me the reported half-life of each entry?
// return numeric value only (unit: h, not printed)

Query: Reported half-life for C[C@H](COc1ccc(-c2ccc(=O)n(C)n2)cc1)CN1CCC[C@H]1C : what is it?
Response: 0.8

Query: And what about the molecule C[C@@H]1CCCN1CCCOc1ccc(-c2ccc(=O)n(C)n2)cc1F ?
Response: 1.2

---

Test: Half life in human liver microsomes
Type: ADME, Microsome
Record form. Attribute: half-life. Fill in for each entry.

Query: Which value of half-life has been reported for C[C@H](COc1ccc(-c2ccc(=O)n(C)n2)cc1)CN1CCC[C@H]1C in the records?
Response: > 40 min

Query: Proceed to C[C@@H]1CCCN1CCCOc1ccc(-c2ccc(=O)n(C)n2)cc1F
Response: > 40 min

Query: Same again, this time with C[C@@H]1CCCN1CCCOc1ccc(-c2ccc(=O)n(-c3ncccn3)n2)cc1
Response: > 40 min

---

Molecular target: Histamine H3 receptor (Rattus norvegicus)
Sequence (Q9QYN8 whole entry): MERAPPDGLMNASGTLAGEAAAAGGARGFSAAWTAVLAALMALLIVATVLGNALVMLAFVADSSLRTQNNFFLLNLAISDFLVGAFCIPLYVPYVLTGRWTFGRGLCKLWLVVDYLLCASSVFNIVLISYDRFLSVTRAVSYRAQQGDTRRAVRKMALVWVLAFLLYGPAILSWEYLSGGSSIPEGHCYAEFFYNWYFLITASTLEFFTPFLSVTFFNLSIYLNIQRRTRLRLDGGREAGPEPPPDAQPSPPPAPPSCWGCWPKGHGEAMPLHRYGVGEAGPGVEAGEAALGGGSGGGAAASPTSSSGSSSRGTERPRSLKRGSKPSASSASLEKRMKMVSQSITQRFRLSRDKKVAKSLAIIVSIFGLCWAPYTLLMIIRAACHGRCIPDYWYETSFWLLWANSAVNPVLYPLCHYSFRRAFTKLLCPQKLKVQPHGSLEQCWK
Please go through the items and note down their pKi.
pKi field: float, defined as -log10 of concentration (mol/L).

Query: Quick one: pKi of C[C@@H]1CCCN1CCCOc1ccc(-c2cc(-c3ccccn3)c(=O)[nH]n2)cc1 ?
Response: 8.00

Query: Please answer likewise for C[C@@H]1CCCN1CCCOc1ccc(-c2ccc(=O)n(C)n2)cc1Cl
Response: 7.85

Query: Likewise for C[C@@H]1CCCN1CCCOc1ccc(-c2ccc(=O)[nH]n2)c(F)c1 ?
Response: 7.16

Query: Request: C[C@@H]1CCCN1CCCOc1ccc(-c2ccc(=O)n(-c3ncccn3)n2)cc1
Response: 8.10

Query: Repeat with Cc1cc(=O)[nH]nc1-c1ccc(OCCCN2CCC[C@H]2C)cc1
Response: 7.92

Query: What about C[C@@H]1CCCN1CCCOc1ccc(-c2ccc(=O)n(CC(F)(F)F)n2)cc1 ?
Response: 7.96

Query: Now try C[C@@H]1CCCN1CCCOc1ccc(-c2ccc(=O)n(CCO)n2)cc1 .
Response: 8.02

Query: Same question for COc1cc(OCCCN2CCC[C@H]2C)ccc1-c1ccc(=O)[nH]n1 please.
Response: 6.64

---

Assay: Half life in iv dosed rat
Type: ADME, organism-based
Conditions: in vivo
QUANTITY NAME: half-life (h)
Please give a number only; it is taken to be in h.

Query: If you can, please state the reported half-life value of C[C@@H]1CCCN1CCCOc1ccc(-c2ccc(=O)n(-c3ncccn3)n2)cc1 .
Response: 1.5

---

Assay: Solubility of the compound at pH 7.4
Format: physicochemical
Conditions: buffer
Kindly supply the reported solubility values for the records listed here.

Query: Reported solubility for C[C@@H]1CCCN1CCCOc1ccc(-c2ccc(=O)n(C)n2)cc1F : what is it?
Response: > 250 µg/mL

Query: Same thing, different molecule: C[C@H](COc1ccc(-c2ccc(=O)n(C)n2)cc1)CN1CCC[C@H]1C
Response: > 250 µg/mL

---

Assign Vd to each entry below.
Test: Volume of distribution in rat at 1 mg/kg, iv after 6 hrs
Format: ADME, organism-based
Parameters: dose 1 mg/kg, route intravenous
Settings: in vivo
Kindly answer with a numeric value in L/kg, unit omitted.

Query: Using the record for C[C@@H]1CCCN1CCCOc1ccc(-c2ccc(=O)n(C)n2)cc1F , report its Vd.
Response: 4.5

Query: Could you do the same for C[C@H](COc1ccc(-c2ccc(=O)n(C)n2)cc1)CN1CCC[C@H]1C , please?
Response: 2.5

---

Target: Cytochrome P450 2D6 (Homo sapiens, UniProt P10635)
Sequence (P10635 whole entry): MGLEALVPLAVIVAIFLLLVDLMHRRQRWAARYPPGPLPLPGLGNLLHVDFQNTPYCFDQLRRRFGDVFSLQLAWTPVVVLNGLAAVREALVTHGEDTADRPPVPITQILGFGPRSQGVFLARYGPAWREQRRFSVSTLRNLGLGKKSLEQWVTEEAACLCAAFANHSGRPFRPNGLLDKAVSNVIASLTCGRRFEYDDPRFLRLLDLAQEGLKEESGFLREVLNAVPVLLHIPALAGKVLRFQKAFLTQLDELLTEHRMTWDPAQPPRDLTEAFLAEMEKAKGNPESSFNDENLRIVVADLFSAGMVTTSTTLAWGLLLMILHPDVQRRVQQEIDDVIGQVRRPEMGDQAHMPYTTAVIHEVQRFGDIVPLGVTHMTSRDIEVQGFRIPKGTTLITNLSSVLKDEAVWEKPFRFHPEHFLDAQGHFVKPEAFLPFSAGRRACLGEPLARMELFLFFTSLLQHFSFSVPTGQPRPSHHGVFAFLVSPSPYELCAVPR
QUANTITY NAME: IC50

Query: Please give the measured IC50 for this molecule: C[C@@H]1CCCN1CCCOc1ccc(-c2ccc(=O)n(-c3ncccn3)n2)cc1
Response: > 30 µM

Recorded values, source ChEMBL document CHEMBL1828619.
